# study-system: UniProt P37136
# Sequence (P37136 32-614): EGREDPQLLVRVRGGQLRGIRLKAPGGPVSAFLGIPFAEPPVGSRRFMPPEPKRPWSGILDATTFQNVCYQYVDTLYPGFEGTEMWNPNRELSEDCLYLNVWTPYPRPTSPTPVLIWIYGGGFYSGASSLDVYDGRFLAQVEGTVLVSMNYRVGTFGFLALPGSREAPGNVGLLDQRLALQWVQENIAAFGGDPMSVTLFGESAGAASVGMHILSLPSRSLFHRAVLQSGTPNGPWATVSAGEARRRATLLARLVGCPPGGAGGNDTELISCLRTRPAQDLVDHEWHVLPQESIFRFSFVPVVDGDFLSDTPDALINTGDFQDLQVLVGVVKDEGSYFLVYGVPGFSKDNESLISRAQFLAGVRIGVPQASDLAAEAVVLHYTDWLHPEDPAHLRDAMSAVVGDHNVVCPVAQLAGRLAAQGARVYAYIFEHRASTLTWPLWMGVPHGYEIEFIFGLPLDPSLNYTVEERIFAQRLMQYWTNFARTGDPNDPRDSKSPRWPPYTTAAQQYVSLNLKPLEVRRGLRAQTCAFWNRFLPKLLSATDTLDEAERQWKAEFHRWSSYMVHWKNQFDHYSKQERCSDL
Where a name gives a salt, the structure may show the parent alone.
Task for the reader: assign each of the following compounds its reported IC50.
Entry rule: numbers only, all in nM.

Form field - read-out: IC50; system: UniProt P37136; submitted item: CCOc1cc2c(cc1OCC)C(=O)C(F)(CC1CCN(CC3CCCCC3)CC1)C2 (stereo not drawn) [Example 50, hydrochloride]
1.9

Lookup: IC50 / UniProt P37136 / CCOc1cc2c(cc1OC)CC(F)(CC1CCN(Cc3ccccc3)CC1)C2=O (stereo not drawn) [Example 37, hydrochloride]
0.73

Notebook: pull reported IC50 for UniProt P37136, entry CCOc1cc2c(cc1OC)CC(CC1CCN(Cc3ccccc3)CC1)C2=O (stereo not drawn) [Example 1, hydrochloride]
7.2
